Values from patent US7138361B2

system: yellow nutsedge (Cyperus esculentus); assay: Test C preemergence; type: in vivo; conditions: Preemergence; Rate 500 g/ha; scale 0 to 100
Plant response rating, Nutsedge for assorted compounds

| Compound | Plant response rating, Nutsedge |
| --- | --- |
| O=C1C(n2ccc(C3CCCCC3)n2)SCN1c1cccc(OC(F)(F)F)c1 (centres unmarked) | 70 |
| CCC(C)c1ccn(C2SCN(c3cccc(C(F)(F)F)c3)C2=O)n1 (centres unmarked) | 50 |
| O=C1C(n2ccc(C3CCC3)n2)OCN1c1cccc(C(F)(F)F)c1 (centres unmarked) | 40 |
| O=C1C(n2ccc(C3CCCCC3)n2)OCN1c1cccc(C(F)(F)F)c1 (centres unmarked) | 30 |
| O=C1C(n2ccc(C3CCC3)n2)SCN1c1cccc(OC(F)F)c1 (centres unmarked) | 100 |

----------
Plant response rating (0 to 100), Soybean for assorted molecules
system: soybean (Glycine max); test: Test C preemergence; type: in vivo; settings: preemergence, Rate 250 g/ha, visual evaluation after 12 to 14 days
Endpoint: Plant response rating (0 to 100), Soybean

| Molecule | Reported Value |
| --- | --- |
| CC(C)(C)c1ccn(C2CCN(c3cccc(OC(F)(F)F)c3)C2=O)n1 (stereo not drawn) [Compound 49] | 50 |
| O=C1C(n2ccc(C3CCCCC3)n2)SCN1c1cccc(OC(F)(F)F)c1 (stereo not drawn) [Compound 50] | 0 |
| CC(C)c1ccn(C2SCN(c3cccc(OC(F)F)c3)C2=O)n1 (stereo not drawn) [Compound 44] | 30 |
| CC(C)(C)c1ccn(C2SCN(c3cccc(OC(F)F)c3)C2=O)n1 (stereo not drawn) [Compound 36] | 50 |
| O=C1C(n2ccc(C3CCCCC3)n2)OCN1c1cccc(C(F)(F)F)c1 (stereo not drawn) [Compound 51] | 20 |
| O=C1C(n2ccc(C3CCC3)n2)SCN1c1cccc(C(F)(F)F)c1 (stereo not drawn) [Compound 37] | 50 |
| O=C1C(n2ccc(C3CCC3)n2)SCN1c1cccc(OC(F)(F)F)c1 (stereo not drawn) [Compound 38] | 0 |
| O=C1C(n2ccc(C3CCC3)n2)OCN1c1cccc(C(F)(F)F)c1 (stereo not drawn) [Compound 39] | 0 |
| O=C1C(n2ccc(C3CC3)n2)OCN1c1cccc(C(F)(F)F)c1 (stereo not drawn) [Compound 28] | 40 |

----------
test system: smallflower flatsedge (Cyperus difformis); experiment: Test C flooded paddy test; type: in vivo; settings: Flooded Paddy; Rate 250 g/ha; scale 0 to 100, 0 no effect, 100 complete control
Endpoint: Flatsedge plant response rating

| Molecule | Tgt | Reported Value |
| --- | --- | --- |
| Cc1ccc(N2CCC(n3ccc(C(C)(C)C)n3)C2=O)cc1OCCI (stereo not drawn) | smallflower flatsedge (Cyperus difformis) | 30 |
| CCC(C)c1ccn(C2SCN(c3cccc(OC(F)(F)F)c3)C2=O)n1 (stereo not drawn) [Compound 40] | smallflower flatsedge (Cyperus difformis) | 100 |
| CC1(c2ccn(C3SCN(c4cccc(C(F)(F)F)c4)C3=O)n2)CC1 (stereo not drawn) | smallflower flatsedge (Cyperus difformis) | 100 |
| Cc1cc(N2CCC(n3ccc(C(C)(C)C)n3)C2=O)ccc1Cl (stereo not drawn) | smallflower flatsedge (Cyperus difformis) | 90 |
| CC(C)(C)c1ccn(C2CCN(c3ccc(Cl)c(Cl)c3)C2=O)n1 (stereo not drawn) | smallflower flatsedge (Cyperus difformis) | 90 |
| Cc1c(F)cc(N2CCC(n3ccc(C(C)(C)C)n3)C2=O)cc1Br (stereo not drawn) | smallflower flatsedge (Cyperus difformis) | 0 |
| CC(C)(C)c1ccn(C2CCN(c3ccc(Cl)c(Br)c3)C2=O)n1 (stereo not drawn) | smallflower flatsedge (Cyperus difformis) | 90 |
| CCCOC(=O)c1cccc(N2CCC(n3ccc(C(C)(C)C)n3)C2=O)c1 (stereo not drawn) | smallflower flatsedge (Cyperus difformis) | 50 |
| CC(C)(C)c1ccn(C2SCN(c3cccc(OC(F)(F)F)c3)C2=O)n1 (stereo not drawn) | smallflower flatsedge (Cyperus difformis) | 100 |
| CCOc1cccc(N2CCC(n3ccc(C(C)CC)n3)C2=O)c1 (stereo not drawn) | smallflower flatsedge (Cyperus difformis) | 100 |
| CCC(C)c1ccn(C2CCN(c3cccc(OC(C)C)c3)C2=O)n1 (stereo not drawn) | smallflower flatsedge (Cyperus difformis) | 100 |
| CCCCC(CCCC)c1ccn(C2OCN(c3cccc(C(F)(F)F)c3)C2=O)n1 (stereo not drawn) | smallflower flatsedge (Cyperus difformis) | 0 |
| CCC(CC)c1ccn(C2OCN(c3cccc(OC(F)F)c3)C2=O)n1 (stereo not drawn) | smallflower flatsedge (Cyperus difformis) | 100 |
| CCC(CC)c1ccn(C2CCN(c3cccc(OC(C)C)c3)C2=O)n1 (stereo not drawn) | smallflower flatsedge (Cyperus difformis) | 100 |
| CC(C)(C)c1ccn(C2CCN(c3cccc(OC(F)F)c3)C2=O)n1 (stereo not drawn) | smallflower flatsedge (Cyperus difformis) | 90 |
| CC(C)(C)c1ccn(C2SCN(c3cccc(C(F)(F)F)c3)C2=O)n1 (stereo not drawn) | smallflower flatsedge (Cyperus difformis) | 100 |
| CC(C)(C)c1ccn(C2CCN(c3ccc(F)c(Cl)c3)C2=O)n1 (stereo not drawn) | smallflower flatsedge (Cyperus difformis) | 90 |
| O=C1C(n2ccc(C3CCCCC3)n2)OCN1c1cccc(C(F)(F)F)c1 (stereo not drawn) | smallflower flatsedge (Cyperus difformis) | 100 |
| CCC(C)c1ccn(C2OCN(c3cccc(OC(F)(F)F)c3)C2=O)n1 (stereo not drawn) | smallflower flatsedge (Cyperus difformis) | 100 |
| CCOc1cccc(N2CCC(n3ccc(C(CC)CC)n3)C2=O)c1 (stereo not drawn) | smallflower flatsedge (Cyperus difformis) | 100 |
| CCC(CC)c1ccn(C2CCN(c3ccc(Cl)c(OC)c3)C2=O)n1 (stereo not drawn) | smallflower flatsedge (Cyperus difformis) | 100 |
| CC(C)(C)c1ccn(C2CCN(c3cccc(S(C)(=O)=O)c3)C2=O)n1 (stereo not drawn) | smallflower flatsedge (Cyperus difformis) | 30 |
| CC1(c2ccn(C3OCN(c4cccc(C(F)(F)F)c4)C3=O)n2)CC1 (stereo not drawn) | smallflower flatsedge (Cyperus difformis) | 90 |
| Cc1ccc(N2CCC(n3ccc(C(C)(C)C)n3)C2=O)cc1OCCCl (stereo not drawn) | smallflower flatsedge (Cyperus difformis) | 80 |
| CCOc1cc(N2CCC(n3ccc(C(C)(C)C)n3)C2=O)ccc1C (stereo not drawn) | smallflower flatsedge (Cyperus difformis) | 100 |
| Cc1cn(C2CCN(c3cccc(C(F)(F)F)c3)C2=O)nc1C(C)C (stereo not drawn) | smallflower flatsedge (Cyperus difformis) | 80 |
| COc1cc(N2CCC(n3ccc(C(C)(C)C)n3)C2=O)ccc1Cl (stereo not drawn) | smallflower flatsedge (Cyperus difformis) | 100 |
| CC(C)(C)c1ccn(C2CCN(c3cccc(SC(F)(F)F)c3)C2=O)n1 (stereo not drawn) | smallflower flatsedge (Cyperus difformis) | 100 |
| O=C1C(n2ccc(C3CCCCC3)n2)SCN1c1cccc(OC(F)(F)F)c1 (stereo not drawn) | smallflower flatsedge (Cyperus difformis) | 90 |
| CC1(c2ccn(C3SCN(c4cccc(OC(F)(F)F)c4)C3=O)n2)CC1 (stereo not drawn) | smallflower flatsedge (Cyperus difformis) | 100 |
